# target entity: ATPase family AAA domain-containing protein 2B (Homo sapiens)
# Sequence (Q9ULI0 whole entry): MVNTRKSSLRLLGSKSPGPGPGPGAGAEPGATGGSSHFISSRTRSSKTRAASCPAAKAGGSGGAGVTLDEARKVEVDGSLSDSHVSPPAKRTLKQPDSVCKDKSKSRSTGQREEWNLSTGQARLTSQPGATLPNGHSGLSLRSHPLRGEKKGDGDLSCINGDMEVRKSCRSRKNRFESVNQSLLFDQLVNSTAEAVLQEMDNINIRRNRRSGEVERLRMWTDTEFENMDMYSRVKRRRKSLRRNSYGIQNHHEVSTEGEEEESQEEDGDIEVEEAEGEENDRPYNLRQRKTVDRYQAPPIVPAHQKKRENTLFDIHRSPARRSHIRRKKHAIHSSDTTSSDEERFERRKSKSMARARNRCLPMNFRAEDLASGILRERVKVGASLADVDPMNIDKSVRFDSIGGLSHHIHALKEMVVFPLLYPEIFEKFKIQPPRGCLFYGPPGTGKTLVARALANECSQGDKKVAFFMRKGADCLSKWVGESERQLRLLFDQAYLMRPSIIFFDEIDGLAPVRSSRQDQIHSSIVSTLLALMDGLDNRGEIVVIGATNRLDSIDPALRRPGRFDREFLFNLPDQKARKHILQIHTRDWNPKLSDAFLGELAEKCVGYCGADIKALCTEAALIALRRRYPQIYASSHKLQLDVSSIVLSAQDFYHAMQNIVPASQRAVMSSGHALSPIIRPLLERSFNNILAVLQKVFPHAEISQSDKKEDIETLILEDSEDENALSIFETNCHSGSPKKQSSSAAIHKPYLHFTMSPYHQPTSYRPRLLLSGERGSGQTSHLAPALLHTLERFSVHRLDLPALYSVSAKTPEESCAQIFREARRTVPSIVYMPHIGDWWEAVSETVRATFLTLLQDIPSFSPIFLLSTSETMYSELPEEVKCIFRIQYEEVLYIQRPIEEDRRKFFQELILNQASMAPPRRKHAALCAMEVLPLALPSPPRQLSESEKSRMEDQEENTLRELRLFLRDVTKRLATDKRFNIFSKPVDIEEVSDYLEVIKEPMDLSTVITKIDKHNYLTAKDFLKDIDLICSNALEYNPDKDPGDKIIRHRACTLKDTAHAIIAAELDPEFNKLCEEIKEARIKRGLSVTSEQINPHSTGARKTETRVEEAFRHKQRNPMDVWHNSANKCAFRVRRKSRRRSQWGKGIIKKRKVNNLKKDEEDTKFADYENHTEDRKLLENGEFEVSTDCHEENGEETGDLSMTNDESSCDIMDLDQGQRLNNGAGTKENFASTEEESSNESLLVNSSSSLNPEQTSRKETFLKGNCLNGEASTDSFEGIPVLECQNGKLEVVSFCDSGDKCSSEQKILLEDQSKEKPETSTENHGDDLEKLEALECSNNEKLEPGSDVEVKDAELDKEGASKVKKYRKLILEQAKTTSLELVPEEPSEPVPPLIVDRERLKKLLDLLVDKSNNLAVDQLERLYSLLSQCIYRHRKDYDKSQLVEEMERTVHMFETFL
# assay method text: Binding affinity to KIAA1240 (unknown origin) assessed as dissociation constant by bromoKdselect analysis
parameter measured: Kd (nM)
Number in nM, nothing else.

## Task For ATPase family AAA domain-containing protein 2B (Homo sapiens), give Kd of the listed compound: `COc1cc(-c2cn(C)c(=O)c3cnccc23)cc(OC)c1CN(C)C`
## Result 1000
